The origin of these recorded values is patent US20240269139A1.

Each entry below carries its recorded logFC RPS6KA1.
test system: protein kinases (human kinome); type: cell-based; details: RPS6KA1 (Q15418-2); experiment wp146
API doc: respond with a numeric literal and nothing else, no unit.

Solved cases (3 shown):
* NC(=O)c1c(F)cccc1Nc1nc(NC2CCN(S(=O)(=O)CCNC(=O)CCCCCCCCOc3cccc4c3C(=O)N(C3CCC(=O)NC3=O)C4=O)CC2)ncc1Br (stereo not shown) | −0.4317
* Cc1cc(S(=O)(=O)NCCOCCOCCOCCOCCNc2cccc3c2C(=O)N(C2CCC(=O)NC2=O)C3=O)ccc1Nc1ncc(Br)c(Nc2cccc(F)c2C(N)=O)n1 (stereo not shown) | −1.351
* Cc1cc(Nc2ncc(Br)c(Nc3cccc(F)c3C(N)=O)n2)ccc1S(=O)(=O)NCCOCCOCCOCCOCCNc1cccc2c1C(=O)N(C1CCC(=O)NC1=O)C2=O (stereo not shown) | −0.6638

State its logFC RPS6KA1: NC(=O)c1c(F)cccc1Nc1nc(Nc2ccc(S(=O)(=O)NCCOCCOCCOCCOCCNc3cccc4c3C(=O)N(C3CCC(=O)NC3=O)C4=O)cc2)ncc1Br (stereo not shown) −0.501
